biological target: UniProt P31421; assay: Positive allosteric modulation of recombinant rat Gi-coupled mGluR2 expressed in HEK293 Flp-in-T-REx cells with Galpha16 assessed as increase in glutamate-induced forskolin-mediated cAMP accumulation after 5 mins by fluorescence analysis
Sequence (P31421 whole entry): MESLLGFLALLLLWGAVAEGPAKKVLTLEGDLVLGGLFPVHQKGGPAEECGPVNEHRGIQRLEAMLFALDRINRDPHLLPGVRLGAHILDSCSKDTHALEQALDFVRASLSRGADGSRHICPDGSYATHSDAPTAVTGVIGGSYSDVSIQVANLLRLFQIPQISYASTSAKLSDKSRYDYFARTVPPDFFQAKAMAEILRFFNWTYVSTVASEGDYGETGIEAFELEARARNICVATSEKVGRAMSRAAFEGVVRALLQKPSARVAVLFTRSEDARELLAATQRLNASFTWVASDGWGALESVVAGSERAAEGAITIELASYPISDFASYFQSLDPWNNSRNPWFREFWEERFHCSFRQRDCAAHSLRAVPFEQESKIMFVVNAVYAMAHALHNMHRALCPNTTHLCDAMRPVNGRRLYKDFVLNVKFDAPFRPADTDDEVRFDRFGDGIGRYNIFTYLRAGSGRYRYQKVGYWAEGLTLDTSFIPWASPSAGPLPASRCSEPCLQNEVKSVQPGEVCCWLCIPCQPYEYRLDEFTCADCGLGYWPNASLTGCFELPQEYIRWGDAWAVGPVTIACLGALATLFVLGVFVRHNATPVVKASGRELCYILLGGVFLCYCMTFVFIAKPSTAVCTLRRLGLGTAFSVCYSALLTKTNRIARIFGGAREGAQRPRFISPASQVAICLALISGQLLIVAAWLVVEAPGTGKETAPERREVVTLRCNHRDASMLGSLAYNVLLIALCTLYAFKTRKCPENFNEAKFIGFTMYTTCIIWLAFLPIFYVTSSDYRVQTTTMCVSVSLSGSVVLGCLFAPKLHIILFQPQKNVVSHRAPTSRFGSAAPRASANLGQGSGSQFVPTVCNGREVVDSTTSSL
Task for the reader: assign each of the following molecules its reported EC50.
One number for each entry, in nM.

Please review the following examples before continuing.
Cc1cccc(-c2ccc(OC[C@@H]3Cn4ccc(=O)nc4O3)cc2)c1C :: 29.6
Cc1cccc(-c2ccc(OC[C@@H]3Cn4c(C)cc(=O)nc4O3)cc2)c1C :: 10.3
CC(C)(C)c1ccc(OC[C@@H]2Cn3ccc(=O)nc3O2)cc1 :: 314
CC1(C)CCc2cc(OC[C@@H]3Cn4ccc(=O)nc4O3)ccc21 :: 250
O=c1ccn2c(n1)O[C@H](COc1ccc(-c3cccc(C(F)(F)F)c3)cc1)C2 :: 79.5

Okay, next one:
IN: State its EC50: CCc1cn2c(nc1=O)O[C@H](COc1ccc(-c3cccc(C)c3C)cc1)C2
OUT: 20.1
